// values below are reported inhibition at 50 µM
Test system: Plasmodium berghei (Pb-Luc) exoerythrocytic-stage parasites
Assay: microbe, parasite or virus in culture
Details: read-out: Inhibition% @ 50 uM rep2
State just the number; it will be interpreted in %.

Completed entries (count: 4):
Compound | Numeric Readout
Oc1ccc(-c2nc(-c3ccc4oc5ccc(-c6[nH]c(-c7ccc(O)cc7)nc6-c6ccccc6)cc5c4c3)c(-c3ccccc3)[nH]2)cc1 [MMV000753] | 104
O=C(NC1CCN(Cc2ccccc2)CC1)c1cc2nc(-c3ccc(Cl)s3)cc(C(F)(F)F)n2n1 [MMV396635] | 24
Cn1c(C(=O)c2cccc3ccccc23)nc2ccccc21 [MMV665824] | 98
CCOc1cccc(C(=O)Nc2ccc(-c3nc4ccccc4[nH]3)cc2)c1 [MMV019202] | 100

Input line: Form field: reported inhibition at 50 µM of Cc1ccnc(NC(c2cccc(OCc3ccccc3)c2)c2ccc3cccnc3c2O)c1 (stereo not drawn) [MMV000720]
Output line: 103

Input line: Param item: COc1ccc(C2=C(c3ccc(OC)cc3)C3(c4ccccc4)C(=O)C2(c2ccccc2)C2C(=O)N(c4ccc(C)cc4)C(=O)C23)cc1 (stereo not drawn) [MMV666101]
Output line: 100

----------
Test system: Plasmodium berghei (Pb-Luc) exoerythrocytic-stage parasites
Conditions: concentration 10, first series of dose columns
// values below are reported normalised signal at concentration 10 (first series)
Answer as a number with no unit attached.

Input line: Form field: reported normalised signal at concentration 10 (first series) of "COc1ccc2c3c([nH]c2c1)[C@H](CO)N(Cc1ccccc1)CC31CN(C(=O)c2ccccn2)C1"
Output line: 0.6758

Input line: Param item: "COc1ccc(CNC(=O)C[C@H]2CC[C@@H](NC(=O)CN(C)C)[C@H](CO)O2)cc1"
Output line: 0.9455

Input line: Param item: "CC(C)[C@@H]1COCc2cnnn2CCC[C@H](C)C(=O)N1"
Output line: 1.091

Input line: Param item: "C[C@@H]1CCCCO[C@H](CN(C)S(=O)(=O)c2ccc(F)cc2)[C@H](C)CN([C@H](C)CO)C(=O)c2cc(N(C)C)ccc2O1"
Output line: 0.8572

Input line: Param item: "O=C(C1CCOCC1)N1C[C@@H]2[C@H](c3ccccc31)[C@H](CO)N2C(=O)Cc1ccccn1"
Output line: 0.9272

Input line: Param item: "O=C(Nc1ccccc1F)N1CCCCN2[C@@H](CO)[C@@H](c3ccc(/C=C/c4ccccc4)cc3)[C@@H]2C1"
Output line: 0.5018

Input line: Param item: "C[C@H]1CCCCO[C@@H](CN(C)S(=O)(=O)c2ccc(F)cc2)[C@@H](C)CN([C@@H](C)CO)C(=O)c2cc(N(C)C)ccc2O1"
Output line: 0.7997

----------
Test system: Plasmodium berghei (Pb-Luc) exoerythrocytic-stage parasites
Conditions: read-out: Pb-Luc IC50; Figure 4a, stereoisomers tested in dose response; listed as BRD9781/7539 series SRR
Measured Metric: pIC50
Quick note: pIC50 values are minus log10 of concentrations in mol/L.

Input line: Form field: reported pIC50 of CCCNC(=O)N1[C@H](CO)[C@H](c2ccc(C#Cc3cccc(F)c3)cc2)[C@@H]1C#N [BRD9781]
Output line: 7.41

----------
// values below are reported inhibition at 1 µM
Tested on: Plasmodium cynomolgi exoerythrocytic-stage small (hypnozoites) and large (liver stage schizonts) parasites
Experiment: P. cynomolgi liver assay in primary hepatocytes
Conditions: Plasmodium cynomolgi, Hepatocyte, read-out: % inhibition normalized to untreated control, Large
State just the number; it will be interpreted in %.

Completed entries (count: 5):
Molecule | Unit Symbol | inhibition at 1 µM
Brc1ccc(Nc2nc3ccccc3nc2Nc2ccc(Br)cc2)cc1 | % | 43
COc1cccc(C=Cc2nc(=O)c3ccccc3o2)c1OC | % | -3
COc1cc(NC(C)CCCN)c2ncccc2c1 (stereo not drawn) [Primaquine, reference compound] | % | 3
O=C(Nc1ccc(-c2nc3cc(NC(=O)c4ccc(Cl)cc4)ccc3[nH]2)cc1)c1ccc(Cl)cc1 | % | 25
COc1ccccc1CNC(=O)CCn1c(=O)[nH]c2ccsc2c1=O | % | -2

Input line: Form field: reported inhibition at 1 µM of COc1ccc(C2=C(c3ccc(OC)cc3)C3(c4ccccc4)C(=O)C2(c2ccccc2)C2C(=O)N(c4ccc(C)cc4)C(=O)C23)cc1 (stereo not drawn)
Output line: 11

Input line: Param item: "O=C(Nc1cccc(C(F)(F)F)c1)c1cc(Cl)ccc1O"
Output line: 10

Input line: Param item: "COc1ccccc1CNC(=O)CCn1c(=O)[nH]c2ccccc2c1=O"
Output line: 2

Input line: Param item: "Cc1ccc(N2C3c4ccccc4N(S(=O)(=O)c4ccc(C)cc4)C2c2ccccc2N3S(=O)(=O)c2ccc(C)cc2)cc1"
Output line: 14

----------
// values below are reported normalized signal at concentration 0.00457247
Tested on: Plasmodium berghei (Pb-Luc) exoerythrocytic-stage parasites
Settings: first series; concentration 0.00457247; fraction of control
Answer as a number with no unit attached.

Completed entries (count: 5):
Compound | Numeric Readout
Cc1cccc(-c2ccc(C3[C@@H]4CN(C(=O)CN(C)C)C[C@H]3N4)cc2)c1 (some centres unmarked) [BRD-K25161260-019-01-1] | 0.92
CN(C)c1ccc2c(c1)[C@@H]1C[C@@H](CC(=O)NC3CCCCC3)O[C@@H](CO)[C@@H]1O2 [BRD-K29474997-001-01-2] | 1.19
C[C@@H]1CN([C@@H](C)CO)C(=O)c2cccc(NC(=O)c3ccc(-c4nccs4)cc3)c2O[C@H]1CN(C)C(=O)Nc1ccc(C(F)(F)F)cc1 [BRD-K97485207-001-01-1] | 0.89
C[C@H]1CCCCO[C@H](CN(C)S(=O)(=O)c2ccc(F)cc2)[C@@H](C)CN([C@@H](C)CO)C(=O)c2cc(N(C)C)ccc2O1 [BRD-K38571893-001-01-9] | 0.90
C[C@@H]1CCCCO[C@@H](CN(C)S(=O)(=O)c2ccc(F)cc2)[C@@H](C)CN([C@@H](C)CO)C(=O)c2cc(N(C)C)ccc2O1 [BRD-K74261250-001-01-9] | 0.77

Input line: Return normalized signal at concentration 0.00457247 measured with Plasmodium berghei (Pb-Luc) exoerythrocytic-stage parasites given this compound: COc1ccc(NC(=O)N(C)C[C@H]2Oc3ccc(NC(=O)CCN4CCOCC4)cc3C(=O)N([C@H](C)CO)C[C@@H]2C)cc1 [BRD-K36853881-001-02-5]
Output line: 0.85

Input line: Param item: COc1cccc(CN2[C@H](CO)[C@@H](c3ccccc3)C23CN(Cc2ccccc2OC)C3)c1 [BRD-K58149752-001-01-9]
Output line: 0.80

Input line: Param item: C[C@@H]1CN([C@@H](C)CO)C(=O)c2cccc(NC(=O)C3CC3)c2O[C@@H]1CN(C)C(=O)Nc1ccc(C(F)(F)F)cc1 [BRD-K19818397-001-01-8]
Output line: 1.0648

Input line: Param item: CCc1csc(N2[C@H](CO)[C@H](c3ccccc3)[C@@H]2CNC)n1 [BRD-K87640608-001-01-8]
Output line: 0.7149

Input line: Param item: C[C@@H]1CN([C@H](C)CO)C(=O)c2cc(N(C)C)ccc2O[C@@H](C)CCCCO[C@H]1CN(C)S(=O)(=O)c1ccc(F)cc1 [BRD-K72687327-001-01-6]
Output line: 0.91

Input line: Param item: O=S(=O)(c1cccs1)N1CCCCN2[C@H](CO)[C@H](c3ccc(/C=C/c4ccccc4)cc3)[C@H]2C1 [BRD-K20449903-001-01-6]
Output line: 0.84

Input line: Param item: C[C@H]1CN([C@@H](C)CO)C(=O)c2cc(C#Cc3ccccc3)cnc2O[C@H]1CN(C)C(=O)c1ccccc1 [BRD-K12503654-001-01-1]
Output line: 1.07

Input line: Param item: C[C@@H]1CCCCO[C@@H](CN(C)S(=O)(=O)c2ccc(F)cc2)[C@@H](C)CN([C@H](C)CO)C(=O)c2cc(N(C)C)ccc2O1 [BRD-K46014293-001-01-6]
Output line: 0.95

Input line: Param item: CC(C)[C@H]1COCn2nncc2CCCC(=O)N1 [BRD-K14350179-001-01-1]
Output line: 0.94

----------
// values below are reported HepG2 Tox% @ 50 uM rep1
Test system: HepG2-A16-CD81EGFP cells
Conditions: human, 50 uM
State just the number; it will be interpreted in %.

Completed entries (count: 8):
Molecule | HepG2 Tox% @ 50 uM rep1 (%)
CCC(O)c1ccc(Br)cc1NC(=O)c1cccc(Cl)c1 (stereo not shown) | 101
CCOC(=O)C1CCN(C(=O)CN2C(=O)c3ccccc3C2c2c[nH]c3ccccc23)CC1 (stereo not shown) | -19
COc1nc(Nc2ccc(C(C)C)cc2)nc(OC)n1 | 94
CCOc1ccc2nc(C)cc(Nc3ccc(N(C)C)cc3)c2c1 | 97
CCOc1ccc(N2C(N)=NC(N)=NC2(C)C)cc1 | -13
CCn1c(CN2CCN(Cc3ccccc3)CC2)nc2cc(NC(=O)c3cccs3)ccc21 | 98
COc1ccc2nc(N)nc(C)c2c1 | 97
CN(C)c1ccc(N2C(N)=NC(N)=NC2(C)C)cc1 | -9

Input line: Form field: reported HepG2 Tox% @ 50 uM rep1 of CCOC(=O)C1=C(C)N=c2sc(=Cc3cc(Cl)ccc3O)c(=O)n2C1c1ccc(OC)cc1 (stereo not shown)
Output line: 100

Input line: Param item: OC(CNCc1ccccc1)Cn1c2ccccc2c2ccccc21 (stereo not shown)
Output line: 99

Input line: Param item: "O=C(Nc1ccccc1O)c1ccc(-c2ccc(Cl)cc2Cl)o1"
Output line: 15

Input line: Param item: "FC(F)(F)c1cccc(CNC2CCN(CCc3ccccc3)CC2)c1"
Output line: 99

Input line: Param item: "O=C(NC1CCN(Cc2ccccc2)CC1)c1cc2nc(-c3ccc(Cl)s3)cc(C(F)(F)F)n2n1"
Output line: -30

Input line: Param item: "COc1ccc(C(=O)Nc2ccc(Cl)cc2C(=O)Nc2ccncc2)cc1"
Output line: -8

Input line: Param item: "COc1ccc(CCN2CCC(CN(C)Cc3cnn(-c4ccccc4)c3)CC2)cc1"
Output line: 99
